- measurement-protocol: Solubility of Ipriflavon in aqueous cyclodextrin solutions (4 days agitation, 25° C., photometric)
- Format: physicochemical
- condition-info: aqueous β-cd 100 mg/ml, Solubility of Ipriflavon
measured-parameter: solubility at 96 h (µg/mL)
Expressed in µg/mL, but write only the number.

Can you look up the measured solubility at 96 h of "CC(C)Oc1ccc2c(=O)c(-c3ccccc3)coc2c1" for me?
6.64

* * *

- measurement-protocol: Solubility of Ipriflavon in aqueous cyclodextrin solutions (4 days agitation, 25° C., photometric)
- Type: physicochemical
- condition-info: aqueous β-cd 9 mg/ml, Solubility of Ipriflavon
measured-parameter: solubility at 96 h
Kindly format the answer as number then unit.

Can you look up the measured solubility at 96 h of CC(C)Oc1ccc2c(=O)c(-c3ccccc3)coc2c1 [Ipriflavon, 7-isopropoxy-isoflavon] for me?
19.5 µg/mL
